- target-desc: Bromodomain adjacent to zinc finger domain protein 1A (Homo sapiens)
- test-description: Binding affinity to recombinant human N-terminal His6-tagged BAZ1A (1446 to 1516 residues) expressed in Escherichia coli BL21 (DE3) cells assessed as change in melting temperature at 25 uM by DSF assay
Kind request: treat 2 °C as inclusive, so ΔTm at 2 °C or higher is true (1), anything lower is false (0).

Some entries whose results are on file:
[
  {
    "compound": "O=C(Nc1cccc([N+](=O)[O-])c1)Nc1nc(-c2ccccc2)cs1",
    "class-name": "true (1)"
  },
  {
    "compound": "O=C(Nc1cccc([N+](=O)[O-])c1)Nc1ccc2cccnc2c1",
    "class-name": "false (0)"
  },
  {
    "compound": "Cc1ccc2nc(-c3ccc(NC(=O)c4ccc([N+](=O)[O-])o4)cc3)oc2c1",
    "class-name": "false (0)"
  }
]

Q) In plain terms: is recorded ΔTm at least 2 °C for CC(NC(=O)Nc1ccc2nnsc2c1)c1cccc(F)c1 (stereo unspecified) ?
A) false (0)

Q) Tell me whether ΔTm is at least 2 °C here: O=C(Nc1ccc(Cl)c(Cl)c1)Nc1ccc2nnsc2c1
A) true (1)

====

- target-desc: Bromodomain adjacent to zinc finger domain protein 1A (Homo sapiens)
- test-description: Binding affinity to recombinant human N-terminal His6-tagged BAZ1A (1446 to 1516 residues) expressed in Escherichia coli BL21 (DE3) cells by MST assay
measured-quantity: pKd
Give bare numbers, as −log10 of the molar value.

Some compounds with known pKd results, for comparison:
[
  {
    "compound": "O=C(Nc1cccc([N+](=O)[O-])c1)Nc1nc(-c2ccccc2)cs1",
    "pKd": 6.28
  },
  {
    "compound": "O=C(Nc1cccc([N+](=O)[O-])c1)Nc1ccc2c(c1)OCCO2",
    "pKd": 5.87
  },
  {
    "compound": "Cc1ccc2nc(-c3ccc(NC(=O)c4ccc([N+](=O)[O-])o4)cc3)oc2c1",
    "pKd": 4.57
  },
  {
    "compound": "O=C(Nc1ccc(Cl)c(Cl)c1)Nc1ccc2nnsc2c1",
    "pKd": 5.80
  },
  {
    "compound": "CN(Cc1cccc([N+](=O)[O-])c1)C(=O)Nc1ccc2nnsc2c1",
    "pKd": 4.24
  }
]

// for each compound below, give its pKd
1. O=C(Nc1cccc([N+](=O)[O-])c1)Nc1ccc2cccnc2c1
2. CN(C)c1ccc(NC(=O)Nc2cccc([N+](=O)[O-])c2)cc1
3. O=C(Nc1cccc([N+](=O)[O-])c1)Nc1ccc2c(c1)C(=O)CC2
4. C=C(C)C(=O)Nc1ccc(-c2nc3cc(NC(=O)C(=C)C)ccc3[nH]2)cc1
5. NC(C(=O)Nc1ccc2nnsc2c1)c1ccccc1 (stereo unspecified)
6. O=C(NCC(=O)N1CCCCC1)Nc1ccc2nnsc2c1

A)
[5.18, 5.75, 4.66, 4.82, 5.73, 4.59]

====

- System: ZR-75-30
- test-description: Cytotoxicity against human ZR-75-30 cells assessed as reduction in cell viability incubated for 72 hrs by MTT assay
- Format: functional, cell-based
- conditions-used: ZR-75-30, 72 h
measured-quantity: IC50 (µM)
Give bare numbers, in µM.

Q) Return the recorded IC50 value; entry: O=C(Nc1cccc([N+](=O)[O-])c1)Nc1nc(-c2ccccc2)cs1
A) 4.29

====

- Test system: BT-474
- test-description: Cytotoxicity against human BT474 cells assessed as reduction in cell viability incubated for 72 hrs by MTT assay
- Type: functional, cell-based
- conditions-used: BT-474, 72 h
measured-quantity: pIC50
Answers are plain numbers, as −log10 of the molar value.

Q) Report the value of pIC50 obtained on BT-474 for O=C(Nc1cccc([N+](=O)[O-])c1)Nc1nc(-c2ccccc2)cs1 .
A) 4.97

====

- target-desc: Bromodomain adjacent to zinc finger domain protein 1A (Homo sapiens, UniProt Q9NRL2)
- Sequence (Q9NRL2 whole entry, the tested form may be a part): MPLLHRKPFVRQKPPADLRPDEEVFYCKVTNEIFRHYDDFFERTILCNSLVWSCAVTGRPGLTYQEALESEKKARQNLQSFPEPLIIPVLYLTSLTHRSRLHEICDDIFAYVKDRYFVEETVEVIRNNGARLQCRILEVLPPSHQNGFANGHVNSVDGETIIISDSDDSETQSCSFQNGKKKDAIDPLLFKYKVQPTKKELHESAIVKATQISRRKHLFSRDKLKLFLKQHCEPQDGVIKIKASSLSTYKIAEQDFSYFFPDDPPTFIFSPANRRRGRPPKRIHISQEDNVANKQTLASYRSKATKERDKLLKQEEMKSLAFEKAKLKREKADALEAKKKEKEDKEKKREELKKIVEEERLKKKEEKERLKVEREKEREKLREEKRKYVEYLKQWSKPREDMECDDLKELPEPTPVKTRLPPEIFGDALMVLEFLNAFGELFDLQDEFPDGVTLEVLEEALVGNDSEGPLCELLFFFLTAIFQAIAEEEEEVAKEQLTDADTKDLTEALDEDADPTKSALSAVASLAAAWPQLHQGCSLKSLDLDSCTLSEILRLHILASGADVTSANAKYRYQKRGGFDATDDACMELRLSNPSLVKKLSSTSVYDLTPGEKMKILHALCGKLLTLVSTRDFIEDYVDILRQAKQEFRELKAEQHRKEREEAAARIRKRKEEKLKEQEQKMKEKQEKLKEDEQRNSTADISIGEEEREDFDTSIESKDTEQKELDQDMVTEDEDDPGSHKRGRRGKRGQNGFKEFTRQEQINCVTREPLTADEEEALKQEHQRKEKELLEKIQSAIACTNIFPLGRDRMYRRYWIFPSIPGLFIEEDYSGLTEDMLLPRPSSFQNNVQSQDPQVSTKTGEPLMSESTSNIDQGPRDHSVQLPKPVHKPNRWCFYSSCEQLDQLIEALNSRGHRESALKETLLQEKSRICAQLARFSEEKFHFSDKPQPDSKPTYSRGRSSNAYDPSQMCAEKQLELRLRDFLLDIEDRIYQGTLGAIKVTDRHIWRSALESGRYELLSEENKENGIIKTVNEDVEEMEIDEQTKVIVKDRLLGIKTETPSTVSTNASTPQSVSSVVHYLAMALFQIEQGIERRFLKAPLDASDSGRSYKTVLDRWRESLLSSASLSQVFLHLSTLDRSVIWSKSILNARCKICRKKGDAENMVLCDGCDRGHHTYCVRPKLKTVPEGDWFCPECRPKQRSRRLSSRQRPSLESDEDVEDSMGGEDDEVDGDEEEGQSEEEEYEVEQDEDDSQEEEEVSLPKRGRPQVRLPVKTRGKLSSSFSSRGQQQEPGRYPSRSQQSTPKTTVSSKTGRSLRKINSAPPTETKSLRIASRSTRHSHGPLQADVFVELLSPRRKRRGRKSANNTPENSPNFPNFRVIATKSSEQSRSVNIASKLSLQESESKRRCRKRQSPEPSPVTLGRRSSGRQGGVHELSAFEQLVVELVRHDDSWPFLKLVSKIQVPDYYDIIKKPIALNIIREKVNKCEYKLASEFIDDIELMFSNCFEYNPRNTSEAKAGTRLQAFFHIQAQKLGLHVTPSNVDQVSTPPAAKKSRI
- test-description: Binding affinity to recombinant human N-terminal His6-tagged BAZ1A (1446 to 1516 residues) expressed in Escherichia coli BL21 (DE3) cells by MST assay
I'd appreciate it if you could supply Kd values for the items below.
Give bare numbers, in µM.

[
  {
    "compound": "O=C(Nc1ccc2nnsc2c1)N(O)c1ccccc1",
    "target-desc": "Bromodomain adjacent to zinc finger domain protein 1A (Homo sapiens, UniProt Q9NRL2)",
    "Kd (µM)": 16.3
  },
  {
    "compound": "O=C(Nc1ccc2cncnc2c1)Nc1ccc2nnsc2c1",
    "target-desc": "Bromodomain adjacent to zinc finger domain protein 1A (Homo sapiens, UniProt Q9NRL2)",
    "Kd (µM)": 3.93
  },
  {
    "compound": "O=C(Nc1ccc(C(F)(F)F)cc1)Nc1cccc(O)c1",
    "target-desc": "Bromodomain adjacent to zinc finger domain protein 1A (Homo sapiens, UniProt Q9NRL2)",
    "Kd (µM)": 13.2
  },
  {
    "compound": "CC(NC(=O)Nc1ccc2nnsc2c1)c1cccc(F)c1 (stereo not given)",
    "target-desc": "Bromodomain adjacent to zinc finger domain protein 1A (Homo sapiens, UniProt Q9NRL2)",
    "Kd (µM)": 8.2
  }
]

Please find the next compound below.
Q) Fill: Kd (Bromodomain adjacent to zinc finger domain protein 1A (Homo sapiens, UniProt Q9NRL2)) for this compound O=C(Nc1cccc([N+](=O)[O-])c1)Nc1ccc2nccnc2c1
A) 3.09

====

- target-desc: Bromodomain adjacent to zinc finger domain protein 1A (Homo sapiens, UniProt Q9NRL2)
- test-description: Binding affinity to recombinant human N-terminal His6-tagged BAZ1A (1446 to 1516 residues) expressed in Escherichia coli BL21 (DE3) cells assessed as change in melting temperature at 25 uM by DSF assay
measured-quantity: ΔTm (°C)
Answers are plain numbers, in °C.

Sample records with ΔTm:
[
  {
    "compound": "CN(Cc1cccc([N+](=O)[O-])c1)C(=O)Nc1ccc2nnsc2c1",
    "measured-quantity": "ΔTm",
    "unit-descriptor": "°C",
    "numeric-value": 1.46
  },
  {
    "compound": "CN(C)c1ccc(NC(=O)Nc2cccc([N+](=O)[O-])c2)cc1",
    "measured-quantity": "ΔTm",
    "unit-descriptor": "°C",
    "numeric-value": 1.56
  },
  {
    "compound": "O=C(Nc1cccc([N+](=O)[O-])c1)Nc1ccc2nccnc2c1",
    "measured-quantity": "ΔTm",
    "unit-descriptor": "°C",
    "numeric-value": 1.64
  },
  {
    "compound": "O=C(NCC(=O)N1CCCCC1)Nc1ccc2nnsc2c1",
    "measured-quantity": "ΔTm",
    "unit-descriptor": "°C",
    "numeric-value": 1.2
  },
  {
    "compound": "O=C(Nc1cccc([N+](=O)[O-])c1)Nc1ccc2c(c1)OCCO2",
    "measured-quantity": "ΔTm",
    "unit-descriptor": "°C",
    "numeric-value": 1.62
  },
  {
    "compound": "O=C(Nc1cccc([N+](=O)[O-])c1)Nc1ccc2c(c1)C(=O)CC2",
    "measured-quantity": "ΔTm",
    "unit-descriptor": "°C",
    "numeric-value": 1.16
  }
]

Could I get ΔTm for every one of these entries?
1. O=C(Nc1ccc(C(F)(F)F)cc1)Nc1cccc(O)c1
2. NC(C(=O)Nc1ccc2nnsc2c1)c1ccccc1 (stereo unspecified)
3. C=C(C)C(=O)Nc1ccc(-c2nc3cc(NC(=O)C(=C)C)ccc3[nH]2)cc1
4. O=C(Nc1ccc2cncnc2c1)Nc1ccc2nnsc2c1
5. O=C(Nc1ccc2nnsc2c1)N(O)c1ccccc1

A)
[3.15, 1.25, 1.61, 1.94, 1.68]
